Experiment: Pharmacokinetics in whole blood
Type: in vivo, mouse (CD-1)
Details: mouse, in vivo, ip, 40 mg/kg, females; 40 mg/kg i.p. single dose, whole blood
Description: For the lead compound JH-FK-08, the mechanism of action resulting in antifungal activity was tested for conservation of calcineurin inhibition. To probe the JH-FK-08 mechanism of action, MICs of JH-FK-08 were determined with fungal mutants that lack the drug-binding protein FKBP12 or have mutations in the binding site on calcineurin that prevent FKBP12-FK506 binding and inhibition. […]
Some compounds, each annotated with its measured Cmax.
Lab book: enter the figure in ng/mL, no units written.

| COMPOUND | Cmax / ng/mL |
| --- | --- |
| C=CCC1C=C(C)CC(C)CC(OC)C2OC(O)(C(=O)C(=O)N3CCCCC3C(=O)OC(C(C)=CC3CCC(O)C(OC)C3)C(C)C(O)CC1=O)C(C)CC2OC (centres unmarked) [FK506, reference compound] | 5960 |

Read the next record carefully.
May I ask what Cmax has been recorded for CC[C@@H]1/C=C(\C)C[C@H](C)C[C@H](OC)[C@H]2O[C@@](O)(C(=O)C(=O)N3CCCC[C@H]3C(=O)O[C@H](/C(C)=C/C3CC[C@@H](O)[C@H](OC)C3)[C@H](C)[C@@H](O)C/C1=N/NC(=O)OC)[C@H](C)C[C@@H]2OC (some centres unmarked) [JH-FK-08] ?
7500

From: patent US20260315446A1
